For each entry below, report its log10(IC50) value.
System: HT-29
Assay: Compound was evaluated for the growth inhibition of HT-29 colon cell line.
Format: functional, cell-based
Details: Homo sapiens
Parameter value (number): base-10 log of IC50 in µg/mL.

For reference, reported log10(IC50) for "CN1CCN(C(=O)CCC(=O)Nc2cc3c4ccccc4ccc3c3ccccc23)CC1" stands at 0.82

For reference, reported log10(IC50) for "O=C(CCC(=O)N1CCCCC1)Nc1ccc2c(ccc3c4ccccc4ccc23)c1" stands at 0.93

For reference, reported log10(IC50) for "O=C(CCC(=O)N1CCCCC1)Nc1cc2c3ccccc3ccc2c2ccccc12" stands at 1.00

For reference, reported log10(IC50) for "CN1CCN(C(=O)CCC(=O)Nc2ccc3c(ccc4c5ccccc5ccc34)c2)CC1" stands at 0.68

For reference, reported log10(IC50) for "c1ccc2c(c1)ccc1c3ccc(NCCCCN4CCCCC4)cc3ccc21" stands at 0.36

For reference, reported log10(IC50) for "COc1cccc2c1C(=O)c1c(O)c3c(c(O)c1C2=O)C[C@@](O)(C(=O)CO)C[C@@H]3O[C@H]1C[C@H](N)[C@H](O)[C@H](C)O1" stands at -0.30

For reference, reported log10(IC50) for "CN1CCN(CCCCNc2ccc3c(ccc4c5ccccc5ccc34)c2)CC1" stands at 0.97

###

Tested on: MCF7
Assay: Compound was evaluated for the growth inhibition of MCF-7 breast cell line.
Assay type: functional, cell-based
Settings: Homo sapiens
readout.kind: IC50 (µg/mL)
Form entry: value (µg/mL) — number only.

For reference, reported IC50 for "O=C(CCC(=O)N1CCCCC1)Nc1cc2c3ccccc3ccc2c2ccccc12" stands at 11.5

For reference, reported IC50 for "O=C(CCC(=O)N1CCCCC1)Nc1ccc2c(ccc3c4ccccc4ccc23)c1" stands at 10.2

For reference, reported IC50 for "c1ccc2c(c1)ccc1c3ccc(NCCCCN4CCCCC4)cc3ccc21" stands at 3

For reference, reported IC50 for "CN1CCN(C(=O)CCC(=O)Nc2ccc3c(ccc4c5ccccc5ccc34)c2)CC1" stands at 9.8

For reference, reported IC50 for "CN1CCN(C(=O)CCC(=O)Nc2cc3c4ccccc4ccc3c3ccccc23)CC1" stands at 11.2

For reference, reported IC50 for "COc1cccc2c1C(=O)c1c(O)c3c(c(O)c1C2=O)C[C@@](O)(C(=O)CO)C[C@@H]3O[C@H]1C[C@H](N)[C@H](O)[C@H](C)O1" stands at 0.4

For reference, reported IC50 for "CN1CCN(CCCCNc2ccc3c(ccc4c5ccccc5ccc34)c2)CC1" stands at 12.1

These entries and their values trace back to ChEMBL document CHEMBL1130632.
